Please go through the items and note down their self-splicing fitness (ln).
test: self-splicing fitness, log relative to wild type (ln ratio); higher = more splicing; Tetrahymena group I intron in knt gene, E. coli kanamycin selection, DiMSum; sequences stand for … in CUCUCU…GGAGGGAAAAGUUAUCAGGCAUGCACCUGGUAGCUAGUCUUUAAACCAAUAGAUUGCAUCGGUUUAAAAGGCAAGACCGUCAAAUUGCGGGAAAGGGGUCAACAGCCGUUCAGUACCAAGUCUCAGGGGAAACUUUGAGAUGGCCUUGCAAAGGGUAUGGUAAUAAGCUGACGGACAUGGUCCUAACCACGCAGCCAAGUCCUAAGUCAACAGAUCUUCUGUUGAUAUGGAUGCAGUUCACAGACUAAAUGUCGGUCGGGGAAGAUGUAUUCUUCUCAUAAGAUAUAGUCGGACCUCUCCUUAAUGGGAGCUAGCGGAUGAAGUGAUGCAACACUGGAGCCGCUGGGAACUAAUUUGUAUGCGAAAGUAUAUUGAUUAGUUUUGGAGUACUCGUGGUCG; conditions: 30 °C;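 also: selection with 25 µg/mL kanamycin versus none on LB agar overnight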
# output: bare number, no unit

Need self-splicing fitness (ln) of UUGCAGCAAUAUUACGGGUG , thanks.
-1.7

Need self-splicing fitness (ln) of CAUCAGCAAUAUUACGAGGU , thanks.
-3.46

Need self-splicing fitness (ln) of GCAAAGCAAUAUUACGCGGC , thanks.
-3.95

Need self-splicing fitness (ln) of CGCUAGCAAUAUUACGAGGA , thanks.
-1.5

Need self-splicing fitness (ln) of UAUUAGCAAUAUUACGCGUA , thanks.
-1.95

Need self-splicing fitness (ln) of GAAAAGCAAUAUUACGCGGA , thanks.
-2.25

Need self-splicing fitness (ln) of UUGGAGCAAUAUUACGGAAA , thanks.
-3.48

Need self-splicing fitness (ln) of CGGGAGCAAUAUUACGUCAU , thanks.
-3.09

Need self-splicing fitness (ln) of AUCAAGCAAUAUUACGCUCA , thanks.
0.0216

Need self-splicing fitness (ln) of CCCGAGCAAUAUUACGCGAU , thanks.
-1.12

Need self-splicing fitness (ln) of UCUUAGCAAUAUUACGUGAU , thanks.
-2.43

Need self-splicing fitness (ln) of CCCCAGCAAUAUUACGAGUA , thanks.
-2.91

Need self-splicing fitness (ln) of CCCCAGCAAUAUUACGGGAG , thanks.
-3.08

Need self-splicing fitness (ln) of GGAGAGCAAUAUUACGCGAA , thanks.
-2.02

Need self-splicing fitness (ln) of GACGAGCAAUAUUACGUACU , thanks.
-1.64

Need self-splicing fitness (ln) of AACGAGCAAUAUUACGAGAU , thanks.
-4.25

Need self-splicing fitness (ln) of GGCCAGCAAUAUUACGAUCC , thanks.
-0.826

Need self-splicing fitness (ln) of CCGCAGCAAUAUUACGUGAG , thanks.
-0.587

Need self-splicing fitness (ln) of UUAUAGCAAUAUUACGGAUA , thanks.
-2.21

Need self-splicing fitness (ln) of UCAUAGCAAUAUUACGAGCA , thanks.
-0.736

Need self-splicing fitness (ln) of GAAUAGCAAUAUUACGAGUU , thanks.
-2.2

Need self-splicing fitness (ln) of UCUAAGCAAUAUUACGGGCG , thanks.
-1.54

Need self-splicing fitness (ln) of ACAGAGCAAUAUUACGGCCG , thanks.
-2.2

Need self-splicing fitness (ln) of GGAGAGCAAUAUUACGUGGG , thanks.
-3.07

Need self-splicing fitness (ln) of CCGAAGCAAUAUUACGGCGU , thanks.
-3.6

Need self-splicing fitness (ln) of CGCAAGCAAUAUUACGUAAA , thanks.
-3.18

Need self-splicing fitness (ln) of GUCGAGCAAUAUUACGUUAU , thanks.
-0.538

Need self-splicing fitness (ln) of UGACAGCAAUAUUACGACGU , thanks.
-1.48

Need self-splicing fitness (ln) of GUCUAGCAAUAUUACGCAAA , thanks.
-1.12

Need self-splicing fitness (ln) of GUGCAGCAAUAUUACGAGCA , thanks.
-3.43

Need self-splicing fitness (ln) of UCCAAGCAAUAUUACGACAG , thanks.
-3.81

Need self-splicing fitness (ln) of GCUAAGCAAUAUUACGGUUU , thanks.
-0.872

Need self-splicing fitness (ln) of CCAUAGCAAUAUUACGGGGA , thanks.
-2.97

Need self-splicing fitness (ln) of UAAAAGCAAUAUUACGGUCU , thanks.
-1.83

Need self-splicing fitness (ln) of GACGAGCAAUAUUACGCGGU , thanks.
-4.23

Need self-splicing fitness (ln) of UGGUAGCAAUAUUACGUCAA , thanks.
-2.31

Need self-splicing fitness (ln) of GCAUAGCAAUAUUACGGUAG , thanks.
-3.52

Need self-splicing fitness (ln) of UGAGAGCAAUAUUACGUCCA , thanks.
-1.04

Need self-splicing fitness (ln) of GGUUAGCAAUAUUACGGCCC , thanks.
-1.23

Need self-splicing fitness (ln) of GUACAGCAAUAUUACGAGUU , thanks.
-1.7

Need self-splicing fitness (ln) of GGAGAGCAAUAUUACGCCUC , thanks.
-3.07

Need self-splicing fitness (ln) of UAGAAGCAAUAUUACGGUUC , thanks.
-3.98

Need self-splicing fitness (ln) of CGCGAGCAAUAUUACGUUCC , thanks.
-3.49

Need self-splicing fitness (ln) of UCUAAGCAAUAUUACGAUGU , thanks.
-0.365

Need self-splicing fitness (ln) of GGGUAGCAAUAUUACGAGCA , thanks.
-0.991

Need self-splicing fitness (ln) of CCGCAGCAAUAUUACGUCUC , thanks.
-3.13

Need self-splicing fitness (ln) of AUUGAGCAAUAUUACGGGAG , thanks.
-3.67

Need self-splicing fitness (ln) of ACCGAGCAAUAUUACGUUUU , thanks.
-3.3

Need self-splicing fitness (ln) of UCUUAGCAAUAUUACGCGGG , thanks.
-2.21

Need self-splicing fitness (ln) of UUUCAGCAAUAUUACGCAAA , thanks.
-2.1

Need self-splicing fitness (ln) of AGGAAGCAAUAUUACGGCCG , thanks.
-0.634

Need self-splicing fitness (ln) of CUACAGCAAUAUUACGAUCA , thanks.
-1.82

Need self-splicing fitness (ln) of UGAAAGCAAUAUUACGCUGG , thanks.
-2.59

Need self-splicing fitness (ln) of UGUUAGCAAUAUUACGGUAA , thanks.
-1.05

Need self-splicing fitness (ln) of UUUAAGCAAUAUUACGGUGA , thanks.
-1.11

Need self-splicing fitness (ln) of CAGGAGCAAUAUUACGUGGU , thanks.
-4.08

Need self-splicing fitness (ln) of UUCAAGCAAUAUUACGCUCU , thanks.
-1.37

Need self-splicing fitness (ln) of AGACAGCAAUAUUACGAGUU , thanks.
-2.26

Need self-splicing fitness (ln) of AUAAAGCAAUAUUACGAGCG , thanks.
-0.041

Need self-splicing fitness (ln) of UAUUAGCAAUAUUACGACCG , thanks.
0.0866

Need self-splicing fitness (ln) of UAAAAGCAAUAUUACGUUCC , thanks.
-3.46
